Please provide measured viability at 24 h, 25 µM for the entries that follow.
# Format: cell-based, human
# EXPERIMENTAL SETUP: human, Cell viability (%)
Bridge positions count the residues as written; N and C are the ends. Square brackets hold non-standard residues; d marks the D form. Peptide text beside a SMILES is read from it. * marks the point of attachment. Propanoyl(3-guanidino) = N=C(N)NCCC(=O)*
Remember to follow the number with its unit.

input: For the molecule shown here, CC[C@H](C)[C@H](NC(=O)[C@H](CCCNC(=N)N)NC(=O)[C@H]1CCC(=O)NCCCC[C@H](NC(=O)[C@H](Cc2ccccc2)NC(=O)[C@H](Cc2c[nH]c3ccccc23)NC(=O)[C@@H]2CCCN2C(=O)[C@@H](NC(=O)[C@H](Cc2ccccc2)NC(=O)CCNC(=N)N)C(C)C)C(=O)N[C@@H](CCCCN)C(=O)N[C@@H](Cc2ccccc2)C(=O)N[C@H](CC(C)C)C(=O)N1)C(=O)N[C@@H](CC(C)C)C(N)=O [Peptide 4, guanidino-βAla-FVPWF[KKFle]RIL] ({Propanoyl(3-guanidino)}-FVPWFKKF[dL][dE]RIL-NH2; lactam 6-10) , give the reported viability at 24 h, 25 µM.
output: 21%

input: For the molecule shown here, CC[C@H](C)[C@H](NC(=O)[C@H](CCCNC(=N)N)NC(=O)[C@H]1CCCCNC(=N)NCCCC[C@H](NC(=O)[C@H](Cc2ccccc2)NC(=O)[C@H](Cc2c[nH]c3ccccc23)NC(=O)[C@@H]2CCCN2C(=O)[C@@H](NC(=O)[C@@H](N)Cc2ccccc2)C(C)C)C(=O)N[C@@H](CCCCN)C(=O)N[C@@H](Cc2ccccc2)C(=O)N[C@H](CC(C)C)C(=O)N1)C(=O)N[C@@H](CC(C)C)C(N)=O [Peptide 12, FVPWF{KKFlk}RIL] , give the reported viability at 24 h, 25 µM.
output: 28%

input: For the molecule shown here, CC[C@H](C)[C@H](NC(=O)[C@H](CCCNC(=N)N)NC(=O)[C@@H]1CCCCNC(=N)NCCCC[C@H](NC(=O)[C@H](Cc2ccccc2)NC(=O)[C@H](Cc2c[nH]c3ccccc23)NC(=O)[C@@H]2CCCN2C(=O)[C@@H](NC(=O)[C@@H](N)Cc2ccccc2)C(C)C)C(=O)N[C@@H](CCCCN)C(=O)N[C@@H](Cc2ccccc2)C(=O)N[C@H](CC(C)C)C(=O)N1)C(=O)N[C@@H](CC(C)C)C(N)=O [Peptide 11, FVPWF{KKFlK}RIL] , give the reported viability at 24 h, 25 µM.
output: 35%
